molecular target: Gamma-aminobutyric acid receptor subunit alpha-2 (Homo sapiens); assay: Agonist activity at recombinant GABAA receptor subunit alpha-2 expressed in CHO cells at 3 uM by sensitive fluorometric read-out assay relative to midazolam; assay type: functional, cell-based
Form field: Efficacy (one value per entry).

See these solved cases before continuing.
Clc1ccc(-n2nc3c4c(ncc3c2OCc2ccccc2Cl)CCCC4)cc1: 50%
Clc1ccc(-n2nc3c4c(ncc3c2OCc2ccccc2Cl)CCOC4)cc1: 32%
Clc1ccc(-n2nc3c(cnc4ccc(-n5ccnc5)cc43)c2OCC2CC2)cc1: 35%
Clc1ccccc1COc1c2cnc3ccccc3c2nn1-c1ccc2c(c1)OCO2: 19%

Prompt: Which measured Efficacy value corresponds to Fc1ccccc1-n1nc2c(cnc3ccccc32)c1OCc1ccccc1Cl ?
Completion: 17%

----------
target: Gamma-aminobutyric acid receptor subunit alpha-2 (Homo sapiens, UniProt P47869); assay: Displacement of [3H]flumazenil from GABAA receptor subunit alpha-2 expressed in CHO cells
Sequence (P47869 whole entry): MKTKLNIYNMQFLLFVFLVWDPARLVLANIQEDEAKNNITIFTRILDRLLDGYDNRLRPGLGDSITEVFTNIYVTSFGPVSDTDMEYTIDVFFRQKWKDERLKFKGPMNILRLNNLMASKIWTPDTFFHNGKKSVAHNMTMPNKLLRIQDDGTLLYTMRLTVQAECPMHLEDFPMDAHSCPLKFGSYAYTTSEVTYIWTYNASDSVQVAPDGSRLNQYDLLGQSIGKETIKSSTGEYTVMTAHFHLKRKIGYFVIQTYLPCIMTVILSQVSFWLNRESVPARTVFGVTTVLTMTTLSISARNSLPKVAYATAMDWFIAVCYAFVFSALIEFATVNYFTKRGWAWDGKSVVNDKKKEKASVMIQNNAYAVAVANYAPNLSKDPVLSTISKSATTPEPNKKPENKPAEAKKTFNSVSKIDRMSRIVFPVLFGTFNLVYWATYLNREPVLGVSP
assay.endpoint: IC50 (nM)

Clc1ccc(-n2nc3c4c(ncc3c2OCc2ccccc2Cl)CCCC4)cc1: 271
Clc1ccc(-n2nc3c4c(ncc3c2OCc2ccccc2Cl)CCOC4)cc1: 461
O=C1C2C=Nc3ccccc3C2=NN1c1ccc(Cl)cc1 (stereo not given) [CGS-9896]: 4

[P] Clc1ccccc1COc1c2cnc3ccccc3c2nn1-c1ccc2c(c1)OCO2
[Q] Clc1ccc(-n2nc3c(cnc4ccccc43)c2OCC2CC2)cc1
Prompt: From the items above, decide which of P and Q has the lower IC50 reading. Let me know the label of the one you choose.
Completion: P
(P: 155 nM, Q: 472 nM)

[P] Fc1ccccc1COc1c2cnc3c(c2nn1-c1ccc(Cl)cc1)CCCC3
[Q] Clc1ccc(-n2nc3c4c(ncc3c2OCc2ccccc2Cl)CCCCC4)cc1
[R] Clc1ccc(-n2nc3c(cnc4ccc(-n5ccnc5)cc43)c2OCC2CC2)cc1
[S] Clc1ccc(-n2nc3c(cnc4ccccc43)c2OCc2ccccc2Cl)cc1
[T] Fc1ccc(COc2c3cnc4c(c3nn2-c2ccc(Cl)cc2)CCCC4)cc1
Prompt: Ascending by IC50, please: list the compounds accordingly. Lab note: record answer as labels in requested order.
Completion: T, P, S, Q, R

----------
experiment: Intrinsic clearance in rat liver microsomes at 5 uM after 60 mins; type: ADME, Microsome
assay.endpoint: microsomal CLint at 5 µM (µL/min/mg)
Only the number, expressed in µL/min/mg, is required.

Prompt: State the recorded microsomal CLint at 5 µM for this entry: Clc1ccc(-n2nc3c4c(ncc3c2OCc2ccccc2Cl)CCCC4)cc1
Completion: 128

----------
target: Gamma-aminobutyric acid receptor subunit alpha-1 (Homo sapiens); assay: Agonist activity at recombinant GABAA receptor subunit alpha-1 expressed in CHO cells at 3 uM by sensitive fluorometric read-out assay relative to midazolam; type: functional, cell-based
assay.endpoint: Efficacy (%)

// solved cases for Efficacy follow
Clc1ccc(-n2nc3c4c(ncc3c2OCc2ccccc2Cl)CCOC4)cc1: 4
FC(F)(F)c1ccccc1COc1c2cnc3c(c2nn1-c1ccc(Cl)cc1)CCCC3: 84
Clc1ccc(-n2nc3c4c(ncc3c2OCc2ccccc2Cl)CCCCC4)cc1: 114

[P] Clc1ccc(COc2c3cnc4c(c3nn2-c2ccc(Cl)cc2)CCCC4)cc1
[Q] Fc1ccccc1-n1nc2c(cnc3ccccc32)c1OCc1ccccc1Cl
Prompt: From the recorded data, which exceeds the other in Efficacy: P or Q ? Choose, then provide that item's label.
Completion: P
(P: 20%, Q: -8%)
